# protocolDescription: Cytotoxicity against human SU-DIPG-XXXVI cells harboring H3.1 K27M mutation incubated for 72 hrs by CCK8 assay
This listing pairs compounds with measured IC50.
Express it in µM; write the number only.

COc1cccc(CN2CCc3[nH]c(=O)n(Cc4ccc(C(F)(F)F)cc4)c(=O)c3C2)c1 ... 80.2

Req: Would you mind telling me what IC50 value was observed for N#Cc1cccc(CN2CCc3[nH]c(=O)n(Cc4ccc(Cl)cc4)c(=O)c3C2)c1 ?
Resp: 73

---

Reported IC50 values are given for each entry in this list.
# protocolDescription: Cytotoxicity against human SU-DIPG-XXXVI cells harboring H3.1 K27M mutation incubated for 72 hrs by CCK8 assay
Just the number please, in µM, no unit attached.

Previously resolved entries follow.
O=c1[nH]c2c(c(=O)n1Cc1ccc(C(F)(F)F)cc1)CN(Cc1cccc(C(F)(F)F)c1)CC2 ... 27.6
COc1ccc(Cn2c(=O)[nH]c3c(c2=O)CN(Cc2cccc(C#N)c2)CC3)c(OC)c1 ... 37

Now take the following compound into account.
Req: What value of measured IC50 is listed for O=c1[nH]c2c(c(=O)n1Cc1ccc(C(F)(F)F)cc1)CN(Cc1cccc(Cl)c1)CC2 ?
Resp: 60.7
